test: folding stability dG unfold (combined trypsin and chymotrypsin); higher = more stable
measurementLabel: folding stability dG unfold (kcal/mol)

>>> df
                            polymersequence             measurementlabel  censoringqualifier  valuereported
0  SAGGSAGGSAGGSMLVRFPDKDVLSDGSEAEAERLAEELAAAGRPVELEFISPEEAAARSAGGSAGGSAGGS [r4_131_JUSTAS]  folding stability dG unfold                   =         -0.424
1  SAGGSEFIPVVAEFPEDVTPEDVARAVRELERAGFVVERVEVERFPDPDGRERYRVRVVLRRPEELSAGGSA [r2_442_TrMRF]  folding stability dG unfold                   =           3.73
2  SAPVIEITEVTFNPDGSVEVTLVIPFPDDPEIPPEEIAKAIKEAFGFEEVTVEPIPETGAWRITLRAPGSAG [r14_228_TrMRF]  folding stability dG unfold                   =           4.07
3  SAGGSFEVEVEVERYPEENYYYVKIPIRLPNNGKKIPLDVPVPADDPEPAEKWAKFIAKELAKQGISAGGSA [r2_221_TrROS]  folding stability dG unfold                   =           -0.1
4  SAGGSAGGSAGGSKLPEGAKITITKNEDGSYTLTVTFPNGEKVEITMSEDELKKLLEALSAGGSAGGSAGGS [r4_16_TrROS_Hall]  folding stability dG unfold                   =           3.79
5  SAGGSAGGSMSTSESVTVTFPDGSVRKATILKQEKLPNGTVPVEIVDEGGTSVGTRNWTVTAESAGGSAGGS [r12_735_JUSTAS]  folding stability dG unfold                   <             -1
6  SAGGSANFKIRMPNGRPMDIQPDPEGETWVIRMPGGHIIPIEIKDGKLKDIKILPGMPPNWSIEPVSAGGSA [r15_709_TrROS]  folding stability dG unfold                   <             -1
